target: formaldehyde dehydrogenase (FDH) (Pseudomonas putida, UniProt P46154); construct: purchased Sigma-Aldrich; experiment: FDH coupling enzyme counterscreen; assay type: biochemical; settings: Table S1; FDH counterscreen; unit not in table, from Figure 2; read-out: qHTS Data: jmjd2e fdh IC50
Sequence (P46154 whole entry): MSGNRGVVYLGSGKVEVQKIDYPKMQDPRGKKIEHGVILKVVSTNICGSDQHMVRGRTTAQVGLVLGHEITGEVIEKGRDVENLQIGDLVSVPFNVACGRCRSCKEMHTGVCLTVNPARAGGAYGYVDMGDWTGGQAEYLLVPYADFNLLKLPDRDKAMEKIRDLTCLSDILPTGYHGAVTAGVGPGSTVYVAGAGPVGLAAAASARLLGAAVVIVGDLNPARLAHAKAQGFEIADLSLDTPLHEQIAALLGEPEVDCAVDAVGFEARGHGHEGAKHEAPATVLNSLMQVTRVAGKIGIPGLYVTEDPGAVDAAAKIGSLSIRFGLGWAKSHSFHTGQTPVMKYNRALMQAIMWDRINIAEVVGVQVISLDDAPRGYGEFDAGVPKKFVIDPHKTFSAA
pIC50: −log10 of the molar value.
Cut-off 5 on pIC50, inclusive. At or above means fulfilled; below means not fulfilled.

Does COc1ccc(-n2c(C)cc(/C=N/Nc3nnc(C)n3N)c2C)cc1.Cl have a reported pIC50 of at least 5?
not fulfilled

Does O=C(Nc1ccccc1C(F)(F)F)c1ncn[nH]1 have a reported pIC50 of at least 5?
not fulfilled

Does COc1ccc(Cn2c(O)c(/C=N/NC(=O)c3ccncc3)c(=O)[nH]c2=O)cc1 have a reported pIC50 of at least 5?
not fulfilled

Further cases:
Does O=C1CC(Sc2ncn[nH]2)C(=O)N1c1ccccc1 (stereo not drawn) have a reported pIC50 of at least 5?
fulfilled

Does Cc1ccc(N2C(=O)CC(Sc3ncn[nH]3)C2=O)cc1C (stereo not drawn) have a reported pIC50 of at least 5?
fulfilled

Does O=C(NC(=S)NNC(=O)c1ccccc1O)c1ccco1 have a reported pIC50 of at least 5?
fulfilled

Does Cc1ccnc(NC(c2cccnc2)c2ccc3cccnc3c2O)c1 (stereo not drawn) have a reported pIC50 of at least 5?
fulfilled

Does C/C(=N\Nc1ccc2nncn2n1)c1ccccn1 have a reported pIC50 of at least 5?
not fulfilled

Does Cc1nc(-c2coc3c(O)c(O)ccc3c2=O)cs1 have a reported pIC50 of at least 5?
not fulfilled
